Overview of reported pIC50 across a group of compounds:
target: human recombinant AT2 receptor (Homo sapiens, UniProt P50052); construct: purchased Eurofins ITEM26 (protocol number); assay: Binding to AT2 receptor, radiometric scintillation assay (Eurofins ITEM26); details: test compounds at 1, 10, 100 and 1000 nM, ligand 125I CGP 42112A; * rows = mean of runs; read-out: AT2 GraFit IC50
Sequence (P50052 whole entry): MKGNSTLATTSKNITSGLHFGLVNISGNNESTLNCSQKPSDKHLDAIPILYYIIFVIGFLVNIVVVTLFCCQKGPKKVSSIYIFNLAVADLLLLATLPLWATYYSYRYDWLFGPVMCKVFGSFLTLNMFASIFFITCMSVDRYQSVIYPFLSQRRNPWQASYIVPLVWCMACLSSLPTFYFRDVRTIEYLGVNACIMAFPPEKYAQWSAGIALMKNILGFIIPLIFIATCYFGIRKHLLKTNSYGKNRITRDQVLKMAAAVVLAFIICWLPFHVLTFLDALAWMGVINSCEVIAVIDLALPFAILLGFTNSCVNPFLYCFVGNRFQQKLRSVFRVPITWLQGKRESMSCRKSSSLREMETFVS
pIC50: −log10 of the molar value.

- compound: "Cc1nccn1Cc1ccc(-c2cc(CC(C)C)ccc2S(=O)(=O)Nc2ncccn2)cc1F [Example 53]"
  study_system: "human recombinant AT2 receptor (Homo sapiens, UniProt P50052)"
  cmp: ">"
  pIC50: 9.52
- compound: "COc1cnc(NS(=O)(=O)c2ccc(CC(C)C)cc2-c2ccc(Cn3ccnc3C(C)(C)C)cc2)nc1"
  study_system: "human recombinant AT2 receptor (Homo sapiens, UniProt P50052)"
  cmp: "="
  pIC50: 7.92
- compound: "Cc1nccn1Cc1ccc(-c2cc(CC(C)C)sc2S(=O)(=O)Nc2ncccn2)cc1"
  study_system: "human recombinant AT2 receptor (Homo sapiens, UniProt P50052)"
  cmp: "="
  pIC50: 8.84
- compound: "CC(C)Cc1ccc(S(=O)(=O)Nc2ncccn2)c(-c2ccc(Cn3ccnc3C(C)C)c(F)c2)c1"
  study_system: "human recombinant AT2 receptor (Homo sapiens, UniProt P50052)"
  cmp: "="
  pIC50: 9.21
- compound: "CC(C)Cc1cc(-c2ccc(Cn3ccnc3C(C)(C)C)c(F)c2)c(S(=O)(=O)Nc2ncccn2)s1"
  study_system: "human recombinant AT2 receptor (Homo sapiens, UniProt P50052)"
  cmp: "="
  pIC50: 9.22
- compound: "CCc1nccn1Cc1ccc(-c2cc(CC(C)C)sc2S(=O)(=O)Nc2ncccn2)cc1"
  study_system: "human recombinant AT2 receptor (Homo sapiens, UniProt P50052)"
  cmp: "="
  pIC50: 8.89
- compound: "Cc1nccn1Cc1ccc(-c2cc(CC(C)C)ccc2S(=O)(=O)Nc2ncccn2)cc1"
  study_system: "human recombinant AT2 receptor (Homo sapiens, UniProt P50052)"
  cmp: "="
  pIC50: 8.94
